test: Oral bioavailability in Sprague-Dawley rat at 5 mg/kg; type: ADME, organism-based; details: in vivo
readout: bioavailability (%)
Give the quantity in %, number only.

Problem: Report bioavailability for COCCN1CCc2cc(Nc3ncc(Cl)c(N[C@@H]4CCCC[C@H]4NS(C)(=O)=O)n3)c(OC)cc2CC1 please.
Solution: 24

---

log10(IC50) overview
target: ALK tyrosine kinase receptor (Homo sapiens, UniProt Q9UM73); assay: Inhibition of autophosphorylation of NPM-ALK in human Karpas-299 cells; type: cell-based
Sequence (Q9UM73 19-1620 limits assumed): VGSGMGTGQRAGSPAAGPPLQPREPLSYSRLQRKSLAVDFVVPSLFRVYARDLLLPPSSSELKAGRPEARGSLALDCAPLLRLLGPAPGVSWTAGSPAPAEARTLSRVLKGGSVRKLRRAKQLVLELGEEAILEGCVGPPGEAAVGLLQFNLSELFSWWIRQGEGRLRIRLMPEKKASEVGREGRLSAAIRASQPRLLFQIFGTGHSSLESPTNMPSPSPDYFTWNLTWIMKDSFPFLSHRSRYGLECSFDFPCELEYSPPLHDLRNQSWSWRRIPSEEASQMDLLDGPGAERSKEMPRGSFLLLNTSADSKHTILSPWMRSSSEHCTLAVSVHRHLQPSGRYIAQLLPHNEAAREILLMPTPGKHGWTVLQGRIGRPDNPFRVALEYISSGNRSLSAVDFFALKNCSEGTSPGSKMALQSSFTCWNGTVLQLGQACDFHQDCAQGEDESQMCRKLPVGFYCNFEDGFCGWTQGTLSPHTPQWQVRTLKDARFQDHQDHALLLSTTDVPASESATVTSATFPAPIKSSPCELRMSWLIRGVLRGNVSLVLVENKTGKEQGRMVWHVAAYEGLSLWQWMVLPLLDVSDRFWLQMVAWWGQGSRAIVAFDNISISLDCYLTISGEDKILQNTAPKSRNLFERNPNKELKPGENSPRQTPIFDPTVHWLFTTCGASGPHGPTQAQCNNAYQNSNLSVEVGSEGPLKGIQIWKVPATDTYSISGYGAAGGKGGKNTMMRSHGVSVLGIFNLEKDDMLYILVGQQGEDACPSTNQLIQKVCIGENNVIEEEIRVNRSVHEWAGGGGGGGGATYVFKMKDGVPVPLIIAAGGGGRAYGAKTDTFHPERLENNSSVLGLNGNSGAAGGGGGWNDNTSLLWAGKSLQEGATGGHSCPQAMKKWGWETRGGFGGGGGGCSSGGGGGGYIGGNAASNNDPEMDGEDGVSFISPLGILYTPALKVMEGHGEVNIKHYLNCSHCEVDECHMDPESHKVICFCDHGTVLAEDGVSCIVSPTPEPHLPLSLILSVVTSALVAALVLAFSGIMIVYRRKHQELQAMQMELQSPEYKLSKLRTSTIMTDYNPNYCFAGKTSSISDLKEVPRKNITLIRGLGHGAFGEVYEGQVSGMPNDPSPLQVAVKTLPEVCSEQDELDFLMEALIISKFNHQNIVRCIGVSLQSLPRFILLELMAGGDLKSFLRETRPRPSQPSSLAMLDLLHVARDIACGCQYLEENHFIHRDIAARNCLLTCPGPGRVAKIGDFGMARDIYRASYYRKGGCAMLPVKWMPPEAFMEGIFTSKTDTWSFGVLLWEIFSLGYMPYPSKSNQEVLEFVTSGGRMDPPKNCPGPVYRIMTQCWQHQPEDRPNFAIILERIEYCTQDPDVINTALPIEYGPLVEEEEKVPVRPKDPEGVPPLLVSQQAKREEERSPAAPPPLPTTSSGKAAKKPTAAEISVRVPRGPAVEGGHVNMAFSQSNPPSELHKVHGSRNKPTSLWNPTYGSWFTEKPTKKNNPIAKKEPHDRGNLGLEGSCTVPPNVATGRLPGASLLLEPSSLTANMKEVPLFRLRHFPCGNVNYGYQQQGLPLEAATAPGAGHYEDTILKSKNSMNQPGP
Hello, just confirming the data are log10 of IC50 with units of nM.

// known answers, use as guide
COc1cc(N2CCOCC2)ccc1Nc1ncc(Cl)c(N[C@@H]2CCCC[C@H]2NS(C)(=O)=O)n1 ... 1.81
CCN1CCc2ccc(Nc3ncc(Cl)c(N[C@@H]4CCCC[C@H]4NC(=O)C(F)(F)F)n3)cc2CC1 ... 2.30
CCN1CCc2ccc(Nc3ncc(Cl)c(N[C@@H]4CCCC[C@H]4NC(C)=O)n3)cc2CC1 ... 1.81
COCCN1CCc2ccc(Nc3ncc(Cl)c(N[C@@H]4CCCC[C@H]4NC(=O)C(F)(F)F)n3)cc2CC1 ... 2.00
COCCN1CCc2cc(Nc3ncc(Cl)c(N[C@@H]4CCCC[C@H]4NS(C)(=O)=O)n3)c(OC)cc2CC1 ... 1.81

Problem: Report log10(IC50) for COCCN1CCc2ccc(Nc3ncc(Cl)c(N[C@@H]4CCCC[C@H]4NS(=O)(=O)CC(F)(F)F)n3)cc2CC1 please.
Solution: 2.48

Problem: Follow-up item: COCCN1CCc2cc(Nc3ncc(Cl)c(N[C@@H]4CCCC[C@H]4N(C)S(C)(=O)=O)n3)c(OC)cc2CC1
Solution: 1.18

Problem: Follow-up item: COCCN1CCc2ccc(Nc3ncc(Cl)c(N[C@@H]4CCCC[C@H]4NS(C)(=O)=O)n3)cc2CC1
Solution: 1.86

Problem: Follow-up item: CCN1CCc2ccc(Nc3ncc(Cl)c(N[C@@H]4CCCC[C@H]4NS(C)(=O)=O)n3)cc2CC1
Solution: 1.78

Problem: Follow-up item: CCN([C@@H]1CCCC[C@H]1Nc1nc(Nc2cc3c(cc2OC)CCN(CCOC)CC3)ncc1Cl)S(C)(=O)=O
Solution: 2.18

---

assay: Clearance in Sprague-Dawley rat at 1 mg/kg, iv; type: ADME, organism-based; set-up: dose 1 mg/kg, route intravenous; details: in vivo
readout: clearance (mL/min/kg)
Give the quantity in mL/min/kg, number only.

Problem: Report clearance for COCCN1CCc2cc(Nc3ncc(Cl)c(N[C@@H]4CCCC[C@H]4NS(C)(=O)=O)n3)c(OC)cc2CC1 please.
Solution: 217

---

assay: Oral bioavailability in CD1 mouse at 10 mg/kg; assay type: ADME, organism-based; settings: in vivo
readout: bioavailability (%)
Give the quantity in %, number only.

Problem: Report bioavailability for COCCN1CCc2cc(Nc3ncc(Cl)c(N[C@@H]4CCCC[C@H]4NS(C)(=O)=O)n3)c(OC)cc2CC1 please.
Solution: 28

---

molecular target: Insulin receptor (Homo sapiens, UniProt P06213)
Sequence (P06213 28-758 limits assumed): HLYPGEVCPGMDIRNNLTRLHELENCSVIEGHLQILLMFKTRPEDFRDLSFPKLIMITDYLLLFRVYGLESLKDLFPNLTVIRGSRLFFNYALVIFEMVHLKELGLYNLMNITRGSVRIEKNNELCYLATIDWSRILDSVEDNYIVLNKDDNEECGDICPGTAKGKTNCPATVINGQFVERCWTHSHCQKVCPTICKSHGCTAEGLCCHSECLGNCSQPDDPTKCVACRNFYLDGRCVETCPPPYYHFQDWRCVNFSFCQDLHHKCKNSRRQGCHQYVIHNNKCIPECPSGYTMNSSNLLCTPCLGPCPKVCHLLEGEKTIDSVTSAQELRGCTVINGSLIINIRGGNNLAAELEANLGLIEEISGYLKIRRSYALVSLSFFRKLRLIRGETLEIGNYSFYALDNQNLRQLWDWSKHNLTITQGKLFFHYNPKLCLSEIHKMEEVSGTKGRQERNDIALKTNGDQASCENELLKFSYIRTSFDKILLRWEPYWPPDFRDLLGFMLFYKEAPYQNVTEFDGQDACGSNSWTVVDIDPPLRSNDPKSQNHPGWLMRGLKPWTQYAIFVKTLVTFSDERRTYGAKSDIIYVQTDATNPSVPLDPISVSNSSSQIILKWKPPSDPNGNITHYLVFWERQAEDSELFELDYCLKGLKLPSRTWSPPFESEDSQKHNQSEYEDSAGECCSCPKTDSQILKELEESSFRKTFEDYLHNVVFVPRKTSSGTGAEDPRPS
Sequence (P06213 763-1382 limits assumed): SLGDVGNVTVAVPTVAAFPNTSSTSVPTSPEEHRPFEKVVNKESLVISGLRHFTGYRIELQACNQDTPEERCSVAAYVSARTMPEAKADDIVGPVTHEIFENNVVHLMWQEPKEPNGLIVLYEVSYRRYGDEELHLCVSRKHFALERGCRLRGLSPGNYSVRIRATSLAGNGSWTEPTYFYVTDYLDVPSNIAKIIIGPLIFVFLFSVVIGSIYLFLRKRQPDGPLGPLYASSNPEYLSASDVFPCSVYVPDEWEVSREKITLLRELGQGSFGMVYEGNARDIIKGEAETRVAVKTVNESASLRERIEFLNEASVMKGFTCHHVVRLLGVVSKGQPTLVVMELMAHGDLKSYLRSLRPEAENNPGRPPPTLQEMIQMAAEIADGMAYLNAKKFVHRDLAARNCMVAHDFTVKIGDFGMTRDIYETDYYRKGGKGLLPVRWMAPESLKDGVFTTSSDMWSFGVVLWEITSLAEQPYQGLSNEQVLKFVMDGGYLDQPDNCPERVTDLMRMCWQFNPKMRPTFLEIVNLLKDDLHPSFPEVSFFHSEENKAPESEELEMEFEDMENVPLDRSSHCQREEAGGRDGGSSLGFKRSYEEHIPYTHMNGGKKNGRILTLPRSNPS
Note to self: class = bucket of IC50, per low: < 500 nM; medium: ≥ 500 nM and < 800 nM; high: ≥ 800 nM

// known answers, use as guide
COCCN1CCc2ccc(Nc3ncc(Cl)c(N[C@@H]4CCCC[C@H]4NC(=O)C(F)(F)F)n3)cc2CC1 ... medium
COCCN1CCc2cc(Nc3ncc(Cl)c(N[C@@H]4CCCC[C@H]4N(C)S(C)(=O)=O)n3)c(OC)cc2CC1 ... low
CCS(=O)(=O)N[C@@H]1CCCC[C@H]1Nc1nc(Nc2ccc3c(c2)CCN(CCOC)CC3)ncc1Cl ... high
CCN1CCc2ccc(Nc3ncc(Cl)c(N[C@@H]4CCCC[C@H]4NS(C)(=O)=O)n3)cc2CC1 ... high
CCN1CCc2ccc(Nc3ncc(Cl)c(N[C@@H]4CCCC[C@H]4NC(=O)C(F)(F)F)n3)cc2CC1 ... medium

Problem: For this compound, which bin applies? COc1cc(N2CCOCC2)ccc1Nc1ncc(Cl)c(N[C@H]2CCCC[C@@H]2NS(C)(=O)=O)n1
Solution: high

Problem: Follow-up item: CCN1CCc2ccc(Nc3ncc(Cl)c(N[C@@H]4CCCC[C@H]4NC(=O)N(C)C)n3)cc2CC1
Solution: low

Problem: Follow-up item: COCCN1CCc2ccc(Nc3ncc(Cl)c(N[C@@H]4CCCC[C@H]4NS(=O)(=O)CC(F)(F)F)n3)cc2CC1
Solution: high

Problem: Follow-up item: COc1cc(N2CCOCC2)ccc1Nc1ncc(Cl)c(N[C@@H]2CCCC[C@@H]2NS(C)(=O)=O)n1 (racemic)
Solution: low

Problem: Follow-up item: COCCN1CCc2ccc(Nc3ncc(Cl)c(NC4CCCCC4)n3)cc2CC1
Solution: low
